test system: SK-OV-3 ovarian; test: NCI-60 one-dose screen, 48 h (100 = growth as untreated, 0 = no growth, -100 = all killed); conditions: 10 µM unless noted
The panel holds about 83,000 compounds, 20% with a hit somewhere; the sample as a whole holds those more often.
readout.name: growth (%)

compound: COc1ccc(-c2nc(/C=C3/C(=O)Nc4ccc(F)cc43)c3ccccn23)cc1
assayed.system: SK-OV-3 ovarian
uom: %
value.measured: 117
//
compound: CCN(CC)c1ccc(C(=N)c2ccc(N(CC)CC)cc2)cc1
assayed.system: SK-OV-3 ovarian
uom: %
value.measured: -36.6
//
compound: CC(=O)Oc1csc(N(C(C)=O)c2cc(C(=O)O)cc(C(=O)O)c2)n1
assayed.system: SK-OV-3 ovarian
uom: %
value.measured: 111
//
compound: C1=Cc2ccccc2N(c2nnc(-c3ccccc3)o2)c2ccccc21
assayed.system: SK-OV-3 ovarian
uom: %
value.measured: 114
//
compound: Nc1cccc(Cl)c1N
assayed.system: SK-OV-3 ovarian
uom: %
value.measured: 94.3
//
compound: CC(C)(C)n1cc(-c2ccnc(NCCCNS(=O)(=O)c3ccc(Br)cc3)c2)c(-c2cccc(O)c2)n1
assayed.system: SK-OV-3 ovarian
uom: %
value.measured: 62.6
//
compound: O=c1[nH]c(-c2ccccc2)nc(CN2CCCCC2)c1O
assayed.system: SK-OV-3 ovarian
uom: %
value.measured: 114
//
compound: O=c1cc(Cc2ccc([N+](=O)[O-])cc2)[nH]c(=O)[nH]1
assayed.system: SK-OV-3 ovarian
uom: %
value.measured: 99.1
//
compound: COc1cc(C2C3=C(COC3=O)Nc3cc4c(cc32)OCO4)cc2c1OCO2 (stereo not given)
assayed.system: SK-OV-3 ovarian
uom: %
value.measured: 12.8
//
compound: COc1cc(-c2nn(-c3cccc(NC(=O)Nc4ccc(Cl)c(C(F)(F)F)c4)c3)cc2-c2ccncc2)ccc1Cl
assayed.system: SK-OV-3 ovarian
uom: %
value.measured: 0.426
//
compound: COc1ccc2c(c1)C(c1cc(OC)c3c(c1)OCO3)C1=C(COC1=O)N2 (stereo not given)
assayed.system: SK-OV-3 ovarian
uom: %
value.measured: 16.2
//
compound: COc1cc(/C=N\NC(=O)CN2CCN(c3cc4c(cc3F)c(=O)c(C(=O)N/N=C/c3cc(OC)c(OC)c(OC)c3)cn4C3CC3)CC2)cc(OC)c1OC
assayed.system: SK-OV-3 ovarian
uom: %
value.measured: 19.2
//
compound: C=C1CCC2C3(C)COC(c4c(OC)cccc4OC)OC3CCC2(C)C1C/C=C1/C(=O)OCC1O (stereo not given)
assayed.system: SK-OV-3 ovarian
uom: %
value.measured: 71.6
//
compound: O=C(O)Cc1cccc(=O)c(O)c1C(=O)O
assayed.system: SK-OV-3 ovarian
uom: %
value.measured: 107
//
compound: Cn1c(=O)cc(NC(=O)CN2CCN(c3cc4c(cc3F)c(=O)c(C(=O)O)cn4C3CC3)CC2)[nH]c1=O
assayed.system: SK-OV-3 ovarian
uom: %
value.measured: 112
//
compound: Brc1ccc(-c2[nH]ncc2-c2c[nH]c3ccccc23)cc1
assayed.system: SK-OV-3 ovarian
uom: %
value.measured: 103
//
compound: CCCC(=O)Oc1ccc(/C(=C(\C)c2ccccc2)c2ccc(OCCN(CC)CC)cc2)cc1
assayed.system: SK-OV-3 ovarian
uom: %
value.measured: 91.7
//
compound: c1ccc(-c2nnc(-c3ccccn3)s2)nc1
assayed.system: SK-OV-3 ovarian
uom: %
value.measured: 95.2
//
compound: Cc1csc(NC(c2ccc(Br)cc2)c2c(C)nc3ccccn23)n1 (stereo not given)
assayed.system: SK-OV-3 ovarian
uom: %
value.measured: 85.3
//
compound: NC1N=C(SCC(=O)N2CCN(c3cc4c(cc3F)c(=O)c(C(=O)O)cn4C3CC3)CC2)NC(=O)/C1=C/c1ccc(Cl)cc1 (stereo not given)
assayed.system: SK-OV-3 ovarian
uom: %
value.measured: 114
//
compound: Oc1ccc2cc(Br)ccc2c1-c1c(O)ccc2cc(Br)ccc12
assayed.system: SK-OV-3 ovarian
uom: %
value.measured: 64.7
//
compound: CC(C)(C)NCCC(O)c1cc2c(Cl)cc(Cl)cc2c2cc(C(F)(F)F)ccc12 (stereo not given)
assayed.system: SK-OV-3 ovarian
uom: %
value.measured: 15.6
//
compound: CN1CCN(Cc2ccc(NC(=O)c3nc4ccc5[nH]ncc5c4c4c3CCC4)cc2C(F)(F)F)CC1
assayed.system: SK-OV-3 ovarian
uom: %
value.measured: 93.8
//
compound: FC(F)(F)c1cccc(-c2cn3c(ccc4ccccc43)n2)c1
assayed.system: SK-OV-3 ovarian
uom: %
value.measured: 85.7
//
compound: O=C(CSc1nc2ccccc2[nH]1)Nc1ccc(-c2nc3ccccc3s2)c(Cl)c1
assayed.system: SK-OV-3 ovarian
uom: %
value.measured: 12.4
//
compound: CC(C)(C)OC(=O)NC(CSCc1ccccc1)C(=O)ON1C(=O)CCC1=O (stereo not given)
assayed.system: SK-OV-3 ovarian
uom: %
value.measured: 104
//
compound: COc1cc2c(cc1O)CCN1C[C@@H](CC(C)C)[C@@H](O)C[C@@H]21
assayed.system: SK-OV-3 ovarian
uom: %
value.measured: 107
//
compound: C[n+]1c(/C=C/c2c(O)ccc3ccccc23)ccc2ccccc21
assayed.system: SK-OV-3 ovarian
uom: %
value.measured: 50.6
//
compound: COc1ccc(-n2c(-c3ccccc3)c(-c3ccccc3)c3c(SCC(=O)N/N=C/c4ccc(Cl)cc4)ncnc32)cc1
assayed.system: SK-OV-3 ovarian
uom: %
value.measured: 73
//
compound: COc1ccc(-c2ccc(C)n2-c2ccc(-c3nc4cc(Cl)ccc4s3)cc2)cc1
assayed.system: SK-OV-3 ovarian
uom: %
value.measured: 96.7
//
compound: CN1CCN(CCCOc2ccc3nc(Nc4ccc(Cl)c(C(F)(F)F)c4)ccc3c2)CC1
assayed.system: SK-OV-3 ovarian
uom: %
value.measured: 91.4
//
compound: O=[N+]([O-])c1cc(Cl)c2[nH]c3c(Cl)cc([N+](=O)[O-])cc3c2c1
assayed.system: SK-OV-3 ovarian
uom: %
value.measured: -11.9
//
compound: CC1=C(C#N)C(=O)NC(C)C1 (stereo not given)
assayed.system: SK-OV-3 ovarian
uom: %
value.measured: 103
//
compound: CCOC(=O)c1ccc(NC(=O)N2CC(C)OC(C)C2)cc1 (stereo not given)
assayed.system: SK-OV-3 ovarian
uom: %
value.measured: 99.5
//
compound: CCCCCCCCCCCCCCCCNC(=O)OC(C)C
assayed.system: SK-OV-3 ovarian
uom: %
value.measured: 69.7
//
compound: CC(O)CN1CCCCC1 (stereo not given)
assayed.system: SK-OV-3 ovarian
uom: %
value.measured: 107
//
compound: CN(C)c1oc(C2OC2c2ccccc2)nc1C#N (stereo not given)
assayed.system: SK-OV-3 ovarian
uom: %
value.measured: 79.2
//
compound: O=C1/C(=C/c2ccccc2)CN(C(=O)CCN2CCC(=NO)CC2)C/C1=C\c1ccccc1
assayed.system: SK-OV-3 ovarian
uom: %
value.measured: 77.5
//
compound: COc1ccc(C(=O)N2NC(=O)/C(=C/c3ccccc3F)N=C2c2ccccc2)cc1
assayed.system: SK-OV-3 ovarian
uom: %
value.measured: 112
//
compound: COc1ccccc1CNCCCN1C(=O)c2ccc3c4c(ccc(c24)C1=O)C(=O)N(CCCNCCCCNCCCN)C3=O
assayed.system: SK-OV-3 ovarian
uom: %
value.measured: 9.93
